- System: Plasmodium falciparum
- assayDetails: GSK_TCMDC: Inhibition of Plasmodium falciparum 3D7 in whole red blood cells, using parasite LDH activity as an index of growth. Test compounds present at 2uM
- Assay type: functional
quantity: Inhibition (%)

- COc1ccc(S(=O)(=O)Nc2ccc(C(=O)NCc3ccccc3C(F)(F)F)cc2)cc1N1CCN(CC2CC2)CC1.O=C(O)C(F)(F)F: 92
- COc1ccc(NC(=O)/C=C/c2ccccc2Cl)cc1OCCN1CCC(N(C)C)CC1: 89
- O=C(Nc1cccc(CN2CCCN(Cc3ccc(F)cc3)CC2)c1)c1cc2ccccc2s1.O=C(O)C(F)(F)F: 91
- CC(C)(NCc1ncc[nH]1)c1nc(-c2ccc(Cl)c(O)c2)c(-c2ccncc2)[nH]1.Cl: 95
- CNC(=O)c1cnc(Nc2ccc(N3CCN(C)CC3)c(C)c2)nc1NC.Cl: 97
- O=C(Nc1cccc(F)c1)NC1CCN(c2ccnc3cc(Cl)ccc23)CC1.O=C(O)C(F)(F)F: 96
- CCC(CC)(CCC#N)CN(C[C@@H](O)[C@H](Cc1ccccc1)NC(=O)OC(C)(C)C)S(=O)(=O)c1ccc(OC)cc1: 82
- COc1c(C2CCN(CCCCNC(=O)c3ccc(C)c(-c4ccc(C(F)(F)F)cc4)c3)CC2)ccc2c1CCCC2: 86
